Data provenance: ChEMBL document CHEMBL2062493

Assay: Free fraction in Danish Landrace pig plasma at 5 MBq after 3 hrs by equilibrium dialysis
Assay type: ADME, cell-free, Sus scrofa
Measured endpoint: fraction unbound at 3 h, 5 MBq

Consider the compound shown here: `COc1cccc(OC)c1-c1cccc(CCN(C)[11CH3])c1` What is its recorded fraction unbound at 3 h, 5 MBq?
0.235

---

Assay: Lipophilicity, log D of the compound at pH 7.4 by HPLC analysis
Format: physicochemical
Settings: buffer
Measured endpoint: logD
Simply state the number, no unit and no words.

Consider the compound shown here: `COc1cccc(OC)c1-c1cccc(CCN(C)C)c1` What is its recorded logD?
4.4
